B1: KCNAB2 (parent)
chain: SSIIHEIDSILGNKPYSKKDYRS

# Variants of: B1
# testName: protein stability index of a GFP-peptide fusion (GPS, HEK-293T) (PSI 1-6); higher = more stable;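 note: lentivirally expressed fusions sorted by FACS into six bins by GFP to DsRed ratio, PSI derived from sequencing read proportions per bin multiplied by bin number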
# testSettings: c terminus: native
Answer not met if protein stability index is under 3, and met if it is 3 or more.

{"mutantLabel": "H5V", "class": "not met"}
{"mutantLabel": "S1E", "class": "not met"}
{"mutantLabel": "S2N", "class": "met"}
{"mutantLabel": "S17P", "class": "met"}
{"mutantLabel": "G12I", "class": "not met"}
{"mutantLabel": "G12W", "class": "not met"}
{"mutantLabel": "R22W", "class": "not met"}
{"mutantLabel": "I3G", "class": "met"}
{"mutantLabel": "D20Q", "class": "not met"}
{"mutantLabel": "L11T", "class": "met"}
{"mutantLabel": "Y16H", "class": "met"}
{"mutantLabel": "G12C", "class": "not met"}
{"mutantLabel": "N13R", "class": "met"}
{"mutantLabel": "D8V", "class": "not met"}
{"mutantLabel": "R22F", "class": "met"}
{"mutantLabel": "S2P", "class": "met"}
{"mutantLabel": "E6Q", "class": "not met"}
{"mutantLabel": "K14D", "class": "met"}
{"mutantLabel": "S23Q", "class": "met"}
{"mutantLabel": "D8R", "class": "not met"}
{"mutantLabel": "S17A", "class": "met"}
{"mutantLabel": "L11A", "class": "met"}
{"mutantLabel": "S17V", "class": "met"}
{"mutantLabel": "I4Y", "class": "not met"}
{"mutantLabel": "D8G", "class": "not met"}
{"mutantLabel": "L11C", "class": "met"}
{"mutantLabel": "K18W", "class": "met"}
{"mutantLabel": "Y16T", "class": "met"}
{"mutantLabel": "I10P", "class": "met"}
{"mutantLabel": "K19I", "class": "met"}
{"mutantLabel": "G12N", "class": "met"}
{"mutantLabel": "Y16R", "class": "not met"}
{"mutantLabel": "P15Q", "class": "not met"}
{"mutantLabel": "L11E", "class": "met"}
{"mutantLabel": "I4E", "class": "met"}
{"mutantLabel": "S1N", "class": "met"}
{"mutantLabel": "E6Y", "class": "not met"}
{"mutantLabel": "I10L", "class": "met"}
{"mutantLabel": "I7R", "class": "met"}
{"mutantLabel": "S17Y", "class": "not met"}

These measurements were taken from the supplement of paper PMC10567573.
